Assay: Cellular viability qHTS for adrenocortical cancer (ACC) cell line NCI-H295R (AID 1963990); further: nearly all actives have a fitted effect of over 60% in size
Settings: CellTiter-Glo ATP luminescence, 48 h; series mostly up to 46.1 µM
Records with an inconclusive call do not appear. Activity calls are given as the source filed them. The call rests on the fitted dose curve; in most records, active means well fitted cell-killing curve with a large enough effect; inconclusive means small, poorly fitted or top-dose-only effect; inactive means flat fitted curve, though single readings scatter.
Your reply should match one of these outcome classes. true (1) = active, false (0) = inactive

COMPOUND | CATEGORY LABEL
COc1ccccc1N1CCN(CC(O)COc2cccc3ccccc23)CC1 (stereo not drawn) | false (0)
COc1cc(O)c(C(=O)c2ccccc2)cc1S(=O)(=O)O | false (0)
CC/C=C(\C(=O)N[C@@H]1C(=O)N2C(C(=O)OCOC(=O)C(C)(C)C)=C(COC(N)=O)CS[C@H]12)c1csc(N)n1 | false (0)
C/C(=C1\CCOC(=O)S1)N(C=O)Cc1cnc(C)nc1N | false (0)
CCC(C(=O)OCCN1CCOC(c2ccccc2)C1C)c1ccccc1 (stereo not drawn) | false (0)
COC[C@H](NC(=O)c1cnc(C)s1)C(=O)N[C@@H](COC)C(=O)N[C@@H](Cc1ccccc1)C(=O)[C@@]1(C)CO1 | true (1)
Cc1cc(-c2ccccc2)nnc1NCCN1CCOCC1 | false (0)
[2H]C([2H])([2H])C(O)([C@@H](C)/C=C/[C@@H](C)[C@H]1CC[C@H]2/C(=C/C=C3C[C@@H](O)C[C@H](O)C3)CCC[C@]12C)C([2H])([2H])[2H] | false (0)
C[N+]1(CC2COC(c3ccccc3)(C3CCCCC3)O2)CCCCC1 (stereo not drawn) | false (0)
COc1cc2nc(Cl)nc(N)c2cc1OC | false (0)

State the result this test recorded for NC(=O)COCCN1CCN(C(c2ccccc2)c2ccc(Cl)cc2)CC1 (stereo not drawn) .
false (0)

State the result this test recorded for `COc1cc(F)c(F)c(Nc2ccc(I)cc2F)c1NS(=O)(=O)C1(C[C@H](O)CO)CC1` .
true (1)

State the result this test recorded for `O=C(Nc1ccnc(NC(=O)C2CC2)c1)c1c(Cl)cccc1Cl` .
true (1)

----------
Assay: Quantitative highthroughput screen to assess conditional lethalithy of P12 Ichikawa cells grown in Human Plasma-Like Medium with dialyzed fetal bovine serum (HPLM+ds) (AID 1963879); further: nearly all actives have a fitted effect of over 35% in size
Conditions: ATP luminescence, 48 h; viability; series mostly up to 45.8 µM
Results filed as inconclusive are left out. Active and inactive are the calls of the source. Calls follow the shape of the dose curve; as a rule, active = well fitted cell-killing curve with a large enough effect; inconclusive = small, poorly fitted or top-dose-only effect; inactive = flat fitted curve, though single readings scatter.
Your reply should match one of these outcome classes. active, inactive

State the result this test recorded for `O=C(O)CCNC(=O)c1ccc(N=Nc2ccc(O)c(C(=O)O)c2)cc1` .
inactive

State the result this test recorded for `O=c1cc(-c2cccc3c2Sc2ccccc2S3)oc(N2CCOCC2)c1` .
inactive

State the result this test recorded for `CON=C(C(=O)N[C@@H]1C(=O)N2C(C(=O)O)=C(CSC(=O)c3ccco3)CS[C@H]12)c1csc(N)n1` .
inactive

State the result this test recorded for `C=C1[C@H](n2cnc3c(=O)[nH]c(N)nc32)C[C@H](O)[C@H]1CO` .
active

----------
Assay: Viability qHTS for spleen associated tyrosine kinase inhibitor (SYKi) naive MV4-11 cells (AID 1963823); further: nearly all actives have a fitted effect of over 40% in size
Settings: MV4-11 AML viability, CellTiter-Glo luminescence, 72 h; series mostly up to 45 µM
Records with an inconclusive call do not appear. The source made the active and inactive calls. Calls come from the whole dose curve; as a rule, active = well fitted cell-killing curve with a large enough effect; inconclusive = small, poorly fitted or top-dose-only effect, or effect the other way; inactive = no such curve, though single readings can be large or run the other way.
Your reply should match one of these outcome classes. YES = active, NO = inactive

Check out these entries, answers already filled in.
COMPOUND | CATEGORY LABEL
CCC1Nc2cc(Cl)c(S(N)(=O)=O)cc2S(=O)(=O)N1 (configuration not stated) | NO
COc1cc([C@H]2OC[C@@H]3[C@@H](c4ccc(O[C@@H]5O[C@H](CO)[C@@H](O)[C@H](O)[C@H]5O)c(OC)c4)OC[C@]23O)ccc1O | NO
CCN(CCO)CCCOc1ccc2c(Nc3cc(CC(=O)Nc4cccc(F)c4)[nH]n3)ncnc2c1 | YES
CC[N+](CC)(CC)CCOC(=O)C(C1CCCC1)C1CCCC1 | YES

State the result this test recorded for `CCN(CC)C(=O)c1cccc(C)c1` .
NO

State the result this test recorded for C=CCNC1=C2CC(C)CC(OC)C(O)C(C)/C=C(\C)C(OC(N)=O)C(OC)/C=C/C=C(\C)C(=O)NC(=CC1=O)C2=O (configuration not stated) .
YES
